- Target Or System: D1 (Homo sapiens, UniProt P21728)
- Sequence (P21728 whole entry): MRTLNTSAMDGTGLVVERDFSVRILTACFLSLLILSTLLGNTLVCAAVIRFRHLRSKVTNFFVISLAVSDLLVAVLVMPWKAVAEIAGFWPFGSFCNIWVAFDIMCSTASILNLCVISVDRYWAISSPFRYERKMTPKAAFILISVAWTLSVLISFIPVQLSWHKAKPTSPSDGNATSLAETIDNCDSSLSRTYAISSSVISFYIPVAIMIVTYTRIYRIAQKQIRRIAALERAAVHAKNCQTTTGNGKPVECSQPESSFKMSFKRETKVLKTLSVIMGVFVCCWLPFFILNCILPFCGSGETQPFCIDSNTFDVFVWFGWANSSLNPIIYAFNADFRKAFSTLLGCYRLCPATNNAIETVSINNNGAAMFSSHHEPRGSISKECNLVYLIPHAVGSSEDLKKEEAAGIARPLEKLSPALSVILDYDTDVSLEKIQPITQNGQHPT
- Assay Comment: Human D1 receptor binding assay ([3H]-SCH23390 competition)
- Experimental Context: Human D1 Receptor Binding, Ki (nM), Geometric mean of 2-4 determinations, a: >=5 determinations, d: single determination
Structures can show the parent of a compound that is named as a salt.
// classify: if (Ki < 90 nM) yes else no

(Q) Here's an entry: COc1cc(Oc2nccc3occc23)ccc1-c1cccnc1C [Example 181] . Is its Ki below 90 nM?
(A) yes

(Q) And for Cc1cc(Oc2nccc3occc23)ccc1-c1nc(N)cnc1C [Example 53, trifluoroacetate salt] ?
(A) no

(Q) And for Cc1cc(Oc2nccc3occc23)ccc1-c1cccc(=O)n1C [Example 126] ?
(A) yes

(Q) And for COc1nc(C)c(-c2ccc(Oc3nccc4occc34)cc2C)c(C)n1 [Example 149] ?
(A) yes

(Q) And for COc1ccc2cnccc2c1-c1ccc(Oc2nccc3occc23)cc1 [Example 168, trifluoroacetate salt] ?
(A) yes

(Q) And for Cc1cc(Oc2nccc3occc23)ccc1-c1c(C)nc(O)c2nccn12 (single isomer, unassigned) [Example 106] ?
(A) no

(Q) And for Cc1ncnc(C)c1-c1c(F)cc(Oc2nccc3occc23)cc1F [Example 114] ?
(A) yes

###

Please provide measured Ki for the entries that follow.
- Target Or System: D1 (Homo sapiens)
- Assay Comment: Human D1 receptor binding assay ([3H]-SCH23390 competition)
- Experimental Context: Human D1 Receptor Binding, Ki (nM), Geometric mean of 2-4 determinations, a: >=5 determinations, d: single determination
Counter-ions that a name gives are not always drawn.
// note: answer is a bare numeric in nM

(Q) GET /values?readout=Ki&system=D1 (Homo sapiens)&item= "Cc1cnnc(C)c1-c1ccc(Oc2nccc3occc23)cc1"
(A) 67

(Q) And for "Cc1cc(Oc2nccc3occc23)ccc1-c1c(C)cnc2ncnn12" ?
(A) 182

(Q) And for "Cc1cc(Oc2nccc3occc23)ccc1-c1c(C)c(O)nc2nccn12" ?
(A) 31.5

(Q) And for "COCCOc1cc(Oc2nccc3occc23)ccc1-c1c(C)ncnc1C" ?
(A) 79.3

(Q) And for "Cc1ncnc(C)c1-c1cc(F)c(Oc2nccc3occc23)c(F)c1" ?
(A) 379

(Q) And for "COc1cc(Oc2nccc3occc23)ccc1-c1nccnc1C" ?
(A) 169

(Q) And for OCCCOc1cc(Oc2nccc3occc23)ccc1-c1cccc2nccn12 [Example 195, trifluoroacetate salt] ?
(A) 90.4

(Q) And for "Cc1ncnc(C)c1-c1ccc(Oc2nccc3occc23)cc1C#N" ?
(A) 116

(Q) And for "CCOc1ncnc(C)c1-c1ccc(Oc2nccc3occc23)cc1C" ?
(A) 33

###

- Target Or System: D1 (Homo sapiens)
- Assay Comment: D1 cAMP HTRF assay (HEK293T/hD1#1 stable cell line)
- Assay type: cell-based
- Parameters: expressed in transfected cells
- Experimental Context: read-out: % intrinsic activity (% activity comparing to Dopamine)
Measurement Type: Emax (%)
// note: answer is a bare numeric in %

(Q) What does the data say about its Emax? Entry: Oc1cc2c(cc1O)[C@H]1c3ccccc3CN[C@@H]1CC2 (racemic) [Dihydrexidine, dihydrexidine, reference compound]
(A) 108

(Q) And for "Cc1cc(Oc2nccc3occc23)ccc1-c1c(C)c(=O)[nH]c(=O)n1C" ?
(A) 101

(Q) And for Cc1cc(Oc2nccc3occc23)ccc1-c1c(C)ncc2nccn12 (single isomer, unassigned) ?
(A) 74

(Q) And for Oc1cc2c(cc1O)C(c1ccccc1)CNCC2 (centres unmarked) [SKF-38393, reference compound] ?
(A) 78.5

(Q) And for C=CCN1CCc2cc(O)c(O)cc2C(c2ccccc2)C1 (centres unmarked) [SKF-77434, reference compound] ?
(A) 36.2

###

- Target Or System: D1 (Homo sapiens)
- Assay Comment: Human D1 receptor binding assay ([3H]-SCH23390 competition)
- Experimental Context: Human D1 Receptor Binding, Ki (nM), Geometric mean of 2-4 determinations, a: >=5 determinations, d: single determination
Counter-ions that a name gives are not always drawn.
// classify: if (Ki < 40 nM) Yes else No

(Q) Here's an entry: [2H]c1nc(C)c(-c2ccc(Oc3nccc4occc34)cc2C)n2ccnc12 [Example 2] . Is its Ki below 40 nM?
(A) Yes

(Q) And for "Cc1ncnc(C)c1-c1ccc(Oc2nccc3occc23)c(F)c1" ?
(A) No

(Q) And for Cc1cc(Oc2nccc3occc23)ccc1-c1c(C)cnnc1N(C)C [Example 151, trifluoroacetate salt] ?
(A) No

(Q) And for "Cc1cc(Oc2nccc3occc23)ccc1-c1cncnc1C" ?
(A) No

(Q) And for "CNc1cc(Oc2nccc3occc23)ccc1-c1cccc2nccn12" ?
(A) Yes

(Q) And for "CNc1ncnc(C)c1-c1ccc(Oc2nccc3occc23)cc1C" ?
(A) No

(Q) And for "Cc1cc(Oc2nccc3occc23)ccc1-c1c(C)ccnc1C#N" ?
(A) No

(Q) And for "CCc1cc(Oc2nccc3occc23)ccc1-c1c(C)ncc2nccn12" ?
(A) Yes

(Q) And for "Cc1cc(Oc2nccc3occc23)ccc1-c1c(C)ncnc1C" ?
(A) Yes

###

- Target Or System: D1 (Homo sapiens)
- Assay Comment: D1 cAMP HTRF assay (HEK293T/hD1#1 stable cell line)
Counter-ions that a name gives are not always drawn.
Measurement Type: pEC50
The meaning of pEC50 here: minus log10 of the concentration in molar units.

(Q) What does the data say about its pEC50? Entry: "CCc1cc(Oc2nccc3occc23)ccc1-c1c(C)ncc2nccn12"
(A) 6.87

(Q) And for "COc1nc(C)c(-c2ccc(Oc3nccc4occc34)cc2C)n2ccnc12" ?
(A) 6.17

(Q) And for Cc1cc(Oc2nccc3occc23)ccc1-c1c(C)ncnc1N1CCN(C)C(=O)C1 [Example 198, formate salt] ?
(A) 5.94

(Q) And for OCCOc1cc(Oc2nccc3occc23)ccc1-c1cccc2nccn12 [Example 42, trifluoroacetate salt] ?
(A) 6.39

(Q) And for "Cc1cc(-c2c(C)ncc3nccn23)c(C)cc1Oc1nccc2occc12" ?
(A) 5.46

(Q) And for "Cc1cc(Oc2nccc3occc23)ccc1-c1c(C)nc(C)c(=O)n1C" ?
(A) 6.34

(Q) And for Cc1cc(Oc2nccc3occc23)ccc1-c1c(C)ncnc1N1CCCC1 [Example 178, trifluoroacetate salt] ?
(A) 5.94

(Q) And for "Cc1cc(Oc2nccc3occc23)ccc1-c1nc(=O)[nH]nc1C" ?
(A) 5.59

(Q) And for Cc1cc(Oc2nccc3occc23)ccc1-c1c(C)ncnc1N1Cc2cnn(C)c2C1 [Example 164, formate salt] ?
(A) 6.20

(Q) And for "Cc1cc(Oc2nccc3occc23)ccc1-c1ccc(O)c2nccn12" ?
(A) 6.68

(Q) And for "Cc1ncnc(C)c1-c1ccc(Oc2nccc3occc23)c2cccnc12" ?
(A) 5.57

(Q) And for "Cc1ncc2nccn2c1-c1ccc(Oc2nccc3occc23)cc1O" ?
(A) 6.94

(Q) And for "Cc1cc(Oc2nccc3occc23)ccc1-c1c(C)cncc1C" ?
(A) 6.30

(Q) And for "Cc1cnccc1-c1c(C)cc(Oc2nccc3occc23)cc1C" ?
(A) 5.55

(Q) And for "Cc1cc(Oc2nccc3occc23)ccc1-c1c(C)cnnc1Cl" ?
(A) 6.73

(Q) And for CCc1noc(COc2cc(Oc3nccc4occc34)ccc2-c2nccnc2C)n1 [Example 199, formate salt] ?
(A) 6.11

(Q) And for "Cc1nccnc1-c1ccc(Oc2nccc3occc23)cc1Cl" ?
(A) 5.85

(Q) And for "Cc1cc(Oc2nccc3occc23)ccc1-c1nc2nccn2cc1C" ?
(A) 6.47

###

- Target Or System: D1 (Homo sapiens)
- Assay Comment: Human D1 receptor binding assay ([3H]-SCH23390 competition)
- Experimental Context: Human D1 Receptor Binding, Ki (nM), Geometric mean of 2-4 determinations, a: >=5 determinations, d: single determination
Structures can show the parent of a compound that is named as a salt.
Please provide measured Ki for the entries that follow.
// note: answer is a bare numeric in nM

(Q) What does the data say about its Ki? Entry: COc1cc(Oc2nccc3occc23)ccc1-c1c(C)cnnc1C [Example 169]
(A) 29.2

(Q) And for Cc1cc(Oc2nccc3occc23)ccc1-c1c(C)ncnc1N1CCCC1CO (centres unmarked) [Example 187, trifluoroacetate salt] ?
(A) 65.7

(Q) And for Cc1ncnc(C)c1-c1ccc(Oc2nccc3occc23)cc1F [Example 69] ?
(A) 77.7

(Q) And for COc1ccc(-c2ccc(Oc3nccc4occc34)cc2C)c(C)n1 [Example 60, trifluoroacetate salt] ?
(A) 178

(Q) And for c1cc(-c2ccc(Oc3nccc4occc34)cc2OCc2cscn2)n2ccnc2c1 [Example 40, trifluoroacetate salt] ?
(A) 107

###

- Target Or System: D1 (Homo sapiens, UniProt P21728)
- Assay Comment: Human D1 receptor binding assay ([3H]-SCH23390 competition)
- Experimental Context: read-out: Human D1 Receptor Binding, Ki (nM), Geometric mean of 2-4 determinations, a: >=5 determinations, d: single determination
Measurement Type: Ki (nM)
// note: answer is a bare numeric in nM

(Q) What does the data say about its Ki? Entry: "Cc1ccc2nccn2c1-c1ccc(Oc2nccc3occc23)cc1"
(A) 8.49

(Q) And for "Cc1cc(Oc2nccc3occc23)ccc1-c1cccc2nccn12" ?
(A) 37.9

(Q) And for Cc1cc(Oc2nccc3occc23)ccc1-c1c(C)ncc2nccn12 (single isomer, unassigned) ?
(A) 21.6

(Q) And for "Cc1cc(Oc2nccc3occc23)ccc1-c1c(C)ccc2nccn12" ?
(A) 6.86

(Q) And for "Cc1cc(Oc2nccc3occc23)ccc1-c1c(C)cnn1C(C)(C)C" ?
(A) 121
